- experimentalDetails: qHTS for Inhibitors of human tyrosyl-DNA phosphodiesterase 1 (TDP1): qHTS in cells in presence of CPT; note: nearly all actives have a fitted effect of over 55% in size
- conditionNotes: chicken DT40 Tdp1-/-;hTDP1 cells + 20 nM CPT, ATP luminescence, 48 h; series mostly up to 46.2 µM
The campaign covered roughly 420,000 compounds. About 50,000 (12%) were called active. Not shown: some 26% with an inconclusive outcome. Calls come from the whole dose curve; as a rule, active = well fitted inhibition curve with a large enough effect; inconclusive = small, poorly fitted or top-dose-only effect; inactive = flat fitted curve, though single readings scatter. This excerpt belongs to a sample that is enriched for actives.
Give one outcome, nothing more. List: y = active, n = inactive

# compound, cat
rows = [
    ("O=C1c2ccccc2NC(c2ccccc2O)N1NS(=O)(=O)c1ccccc1 (stereo not given)", "n"),
    ("CC(Sc1nnc(CNC(=O)c2ccccc2F)n1C)C(=O)Nc1nccs1 (stereo not given)", "n"),
    ("O=C1Nc2ccc(Br)cc2/C1=N/N=C/C1=C(N2CCOCC2)C(=C\\c2ccccc2)/CC1", "y"),
    ("Cc1cc(C)cc(NC(=O)Cn2nc(N3CCN(c4ccccc4)CC3)ccc2=O)c1", "n"),
]

Now take the following compound into account.
Qu. Outcome? `COc1ccc(/C=N/N=C2/C(=O)Nc3ccccc32)cc1O`
Ans. n

From: PubChem BioAssay AID686979
